Data provenance is PubChem BioAssay (NCI).

System: HOP-62 NSCLC
Experiment: NCI tumour cell line growth inhibition, 48 h
valueKind: TGI

[[record]]
compound = "Cc1cccc(N/C(=C(/C(Cl)=C(Cl)Cl)[N+](=O)[O-])n2nnc3ccccc32)c1"
valuekind = "TGI"
reportedmeasurement = "33.3 µM"

[[record]]
compound = "Cc1ccc(/C(=C/C=C(C#N)C#N)Sc2ccc(Cl)cc2)cc1"
valuekind = "TGI"
reportedmeasurement = "15.6 µM"

[[record]]
compound = "C=CCCCCCCCCC(=O)NS(=O)(=O)c1ccccc1"
valuekind = "TGI"
reportedmeasurement = "> 100 µM"

[[record]]
compound = "COC(=O)C1=NC(=S)NC(c2ccccc2)C1c1nc2ccccc2s1 (configuration not stated)"
valuekind = "TGI"
reportedmeasurement = "> 100 µM"

[[record]]
compound = "CN(C)CC/C(=N\\Nc1c(Cl)cccc1Cl)c1ccccc1"
valuekind = "TGI"
reportedmeasurement = "> 100 µM"

[[record]]
compound = "Cc1nc(N)c(N2CCN(S(N)(=O)=O)CC2)c(=O)[nH]1"
valuekind = "TGI"
reportedmeasurement = "> 100 µM"

[[record]]
compound = "O=C(O)c1cccc(Nc2c(C(=O)O)cccc2[N+](=O)[O-])c1"
valuekind = "TGI"
reportedmeasurement = "> 100 µM"

[[record]]
compound = "O=c1cccccc1NCCCNc1cccccc1=O"
valuekind = "TGI"
reportedmeasurement = "> 100 µM"

[[record]]
compound = "Cc1noc(C)c1CCCOC1COc2ccccc2OCCOCCOc2ccccc2OC1"
valuekind = "TGI"
reportedmeasurement = "> 100 µM"

[[record]]
compound = "COc1cc2c(cc1C)NC(=O)/C2=C/c1cccnc1"
valuekind = "TGI"
reportedmeasurement = "30.5 µM"

[[record]]
compound = "CC(=O)[CH-]C(=O)c1ccccc1.CC(=O)[CH-]C(=O)c1ccccc1.O=C([O-])c1ccc([O-])cc1.O=C([O-])c1ccc([O-])cc1.[Ti+4]"
valuekind = "TGI"
reportedmeasurement = "> 100 µM"

[[record]]
compound = "CCC1CN2CCc3cc(OC)c(OC)cc3C2CC1CC1c2cc(OC)c(OC)cc2CCN1C(=O)C(N)Cc1ccccc1 (configuration not stated)"
valuekind = "TGI"
reportedmeasurement = "7.78 µM"

[[record]]
compound = "CC(C)c1ccc(C(=O)Nc2sc3c(c2C(N)=O)CCC(=O)C3)cc1"
valuekind = "TGI"
reportedmeasurement = "18.1 µM"

[[record]]
compound = "Cc1cc(S(=O)(=O)Nc2nc(N)nc(N3N=CCC3C)n2)c(SCC(=O)O)cc1Cl (configuration not stated)"
valuekind = "TGI"
reportedmeasurement = "> 10 µM"

[[record]]
compound = "Nc1ncc(-c2cnn(CCO)c2)c2scc(-c3ccc(NC(=O)Nc4cccc(F)c4)cc3)c12"
valuekind = "TGI"
reportedmeasurement = "2.71 µM"

[[record]]
compound = "COc1ccc(CNc2ccn(C3OC(CO)C(O)C3O)c(=O)n2)cc1 (configuration not stated)"
valuekind = "TGI"
reportedmeasurement = "> 100 µM"

[[record]]
compound = "CC(C)C[C@H]1[C@@H](OCc2ccccc2)COS(=O)(=O)N1[C@H](C)c1ccccc1"
valuekind = "TGI"
reportedmeasurement = "> 100 µM"

[[record]]
compound = "C/C(Cl)=N/OC(=O)Nc1ccc(F)c([N+](=O)[O-])c1"
valuekind = "TGI"
reportedmeasurement = "33.9 µM"

[[record]]
compound = "CC1=C(C)CC2(CCCCC2=O)S(=O)C1 (configuration not stated)"
valuekind = "TGI"
reportedmeasurement = "> 100 µM"

[[record]]
compound = "[O-][n+]1nc(N2CCOCC2)nc2ccccc21"
valuekind = "TGI"
reportedmeasurement = "> 100 µM"

[[record]]
compound = "COc1cc[nH]c1/C=C1\\C(=O)Nc2ccccc21"
valuekind = "TGI"
reportedmeasurement = "> 25 µM"

[[record]]
compound = "NC1C/C(=N\\O)c2c(Cl)sc(Cl)c21 (configuration not stated)"
valuekind = "TGI"
reportedmeasurement = "37 µM"

